experiment: Pharmacokinetic analysis after oral administration of the formulation to rats; format: in vivo; conditions: male, Sprague Dawley, rat; oral, 5 mg/kg, plasma; read-out: Cmax
measure: Cmax (µM)
Numeric answer only, unit µM assumed.

Could you share which Cmax value was measured for C[C@@H](NC[C@H]1CN(c2cc(C(=O)O)cc(C(F)(F)F)c2)CCO1)c1cccc2ccccc12 ?
3.6

----------
Would you mind telling me the reported Cmax of each entry?
test: Pharmacokinetic analysis after oral administration of the formulation to rats; assay type: in vivo; details: male, Sprague Dawley, rat, in vivo, po, 5 mg/kg
Reply with just the number (in µM).

What value of Cmax has been reported for the following compound? Cc1ccc([C@@H]2C[C@H](CN[C@H](C)c3cccc4ccccc34)Oc3ccccc32)cc1C(=O)O.Cl
3.4

Reported Cmax for COc1cc([C@@H](C)NC[C@@H]2Cc3ccccc3[C@H](c3ccc(C)c(C(=O)O)c3C)C2)ccc1F.Cl : what is it?
1.5

State the recorded Cmax for this entry: Cc1ccc(N2C[C@H](CCN[C@H](C)c3cccc4ccccc34)Oc3ccccc32)cc1C(=O)O.Cl
4.9

----------
assay: Pharmacokinetic analysis after oral administration of the formulation to rats; type: in vivo; settings: male, Sprague Dawley, rat; oral, 5 mg/kg, plasma; read-out: Tmax
measure: Tmax

Fill in: Tmax of C[C@@H](NC[C@H]1CN(c2cc(C(=O)O)cc(C(F)(F)F)c2)CCO1)c1cccc2ccccc12 [Compound 1] is ___
15 to 60 min

----------
experiment: Pharmacokinetic analysis after oral administration of the formulation to rats; format: in vivo; conditions: male, Sprague Dawley, rat; oral, 5 mg/kg, dose volume 1 mL/kg, plasma, sampling to 24 hours; read-out: AUC0-1
measure: AUC(0-t)

Fill blank: measured AUC(0-t) of the molecule C[C@@H](NC[C@H]1CN(c2cc(C(=O)O)cc(C(F)(F)F)c2)CCO1)c1cccc2ccccc12 [Compound 1] is ____.
7.3 µM·h

----------
What Tmax was measured for each of the following?
assay: Pharmacokinetic analysis after oral administration of the formulation to rats; assay type: in vivo; settings: male, Sprague Dawley, rat, in vivo, po, 5 mg/kg

Give its Tmax value. Item: COc1cc([C@@H](C)NC[C@@H]2Cc3ccccc3[C@H](c3ccc(C)c(C(=O)O)c3C)C2)ccc1F.Cl
30 to 120 min

Which Tmax reading was recorded for the molecule Cc1ccc(N2C[C@H](CCN[C@H](C)c3cccc4ccccc34)Oc3ccccc32)cc1C(=O)O.Cl ?
15 min

I'd like to know its Tmax. The molecule in question is Cc1ccc([C@@H]2C[C@H](CN[C@H](C)c3cccc4ccccc34)Oc3ccccc32)cc1C(=O)O.Cl
30 to 120 min

----------
So I've got a bunch of compounds here, and I need their AUC(0-t) values.
assay: Pharmacokinetic analysis after oral administration of the formulation to rats; type: in vivo; details: male, Sprague Dawley, rat, in vivo, po, 5 mg/kg
Quick reminder: number only, in µM·h, skip the unit.

Need AUC(0-t), item Cc1ccc([C@@H]2C[C@H](CN[C@H](C)c3cccc4ccccc34)Oc3ccccc32)cc1C(=O)O.Cl
15

What value of measured AUC(0-t) is listed for Cc1ccc(N2C[C@H](CCN[C@H](C)c3cccc4ccccc34)Oc3ccccc32)cc1C(=O)O.Cl ?
16

Quick check: AUC(0-t) of COc1cc([C@@H](C)NC[C@@H]2Cc3ccccc3[C@H](c3ccc(C)c(C(=O)O)c3C)C2)ccc1F.Cl ?
5.5
